B1: FAM46D (parent)
chain: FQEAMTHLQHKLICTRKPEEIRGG

- Variants of: B1
- Assay name: protein stability index of a GFP-peptide fusion (GPS, HEK-293T) (PSI 1-6); higher = more stable;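 further: lentivirally expressed fusions sorted by FACS into six bins by GFP to DsRed ratio, PSI derived from sequencing read proportions per bin multiplied by bin number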
- Run parameters: c terminus: a fixed tail appended
Note to self: class = bucket of protein stability index, per low bin = under 2, mid bin = from 2 up to 3, high bin = 3 and over

{"columns": ["Variant label", "Class assignment"],
 "data": [
  ["G24R", "mid bin"],
  ["E19Y", "mid bin"],
  ["H10P", "high bin"],
  ["R22S", "mid bin"],
  ["P18Q", "mid bin"],
  ["F1Q", "high bin"],
  ["I21S", "high bin"],
  ["C14K", "mid bin"],
  ["K17H", "mid bin"],
  ["F1E", "high bin"],
  ["I21D", "high bin"],
  ["R16Y", "high bin"],
  ["E20P", "mid bin"],
  ["R16F", "mid bin"],
  ["K17C", "low bin"],
  ["P18Y", "mid bin"],
  ["E3I", "mid bin"],
  ["K17N", "mid bin"],
  ["M5L", "low bin"],
  ["P18W", "mid bin"],
  ["M5F", "low bin"],
  ["Q2V", "low bin"],
  ["A4K", "high bin"],
  ["I13K", "high bin"],
  ["H7T", "mid bin"],
  ["G24P", "mid bin"],
  ["A4T", "high bin"],
  ["Q2M", "mid bin"],
  ["T6W", "low bin"],
  ["H7N", "high bin"],
  ["Q9N", "low bin"],
  ["T6V", "mid bin"],
  ["T15I", "mid bin"],
  ["T6R", "mid bin"],
  ["K11N", "mid bin"],
  ["G23Y", "mid bin"],
  ["G23M", "mid bin"],
  ["E19P", "high bin"]
]}
